Tested on: BDF1 mice, P388 leukemia ip, median survival T/C
Assay: NCI In Vivo Anticancer Drug Screen. Data for tumor model P388 Leukemia (intraperitoneal) in B6D2F1 (BDF1) mice
Details: endpoint: median survival time; dose: 200.0 mg/kg/injection; schedule: Q01DX009 (ip); vehicle: saline with Tween-80; higher = longer survival
Toxic doses and inconclusive results are not listed.
READOUT_NAME: T/C

COMPOUND: CC(Nc1ccc(Br)cc1[N+](=O)[O-])C(=O)O (stereo unspecified)
T/C: 114 % of control
//
COMPOUND: COc1ccc(C=Nc2ccccc2N=Cc2ccc(OC)c(OC)c2)cc1OC
T/C: 100 % of control
//
COMPOUND: C[C@@H]1C[C@H]2C(=CC1=O)CC[C@@H]1[C@@H]2CC[C@]2(C)[C@@H](O)CC[C@@H]12
T/C: 109 % of control

Q: Lookup: T/C / BDF1 mice, P388 leukemia ip, median survival T/C / CC(=O)O[C@]1(C(C)=O)CC[C@H]2[C@@H]3C[C@H](Cl)C4=CC(=O)CC[C@]4(C)[C@H]3CC[C@@]21C
A: 100 % of control

Q: Lookup: T/C / BDF1 mice, P388 leukemia ip, median survival T/C / CC(C)(O)c1cccc(F)c1
A: 109 % of control

Q: Lookup: T/C / BDF1 mice, P388 leukemia ip, median survival T/C / CCCCCCC(=O)/C=C/c1c(Cl)cccc1Cl
A: 116 % of control

Q: Lookup: T/C / BDF1 mice, P388 leukemia ip, median survival T/C / O=C(c1ccccc1)C1OC1c1ccccc1 (stereo unspecified)
A: 99 % of control

Q: Lookup: T/C / BDF1 mice, P388 leukemia ip, median survival T/C / CC(=O)n1ccc(=O)[nH]c1=O
A: 99 % of control

Q: Lookup: T/C / BDF1 mice, P388 leukemia ip, median survival T/C / CC(C)C1=CC2=CC[C@@H]3[C@](C)(CCC[C@@]3(C)C(=O)O)[C@H]2CC1
A: 100 % of control

Q: Lookup: T/C / BDF1 mice, P388 leukemia ip, median survival T/C / C=C(C)C(=O)NCCCCCC(=O)Oc1ccc([N+](=O)[O-])cc1
A: 86 % of control

Q: Lookup: T/C / BDF1 mice, P388 leukemia ip, median survival T/C / CNc1ccccc1O
A: 95 % of control

---

System: BDF1 mice, P388 leukemia ip, median survival T/C
Experiment: NCI In Vivo Anticancer Drug Screen. Data for tumor model P388 Leukemia (intraperitoneal) in B6D2F1 (BDF1) mice
Conditions: endpoint: median survival time; dose: 12.5 mg/kg/injection; schedule: Q04DX003 (ip); vehicle: saline; higher = longer survival
Toxic doses and inconclusive results are not listed.
READOUT_NAME: T/C

Below: 3 compounds and their reported T/C.
COMPOUND: c1ccc(C[n+]2ccc3ccccc3c2)cc1
T/C: 95 % of control
--
COMPOUND: CC1OCC(Br)([N+](=O)[O-])CO1 (centres undefined)
T/C: 99 % of control
--
COMPOUND: O=C(CSCSCC(=O)Nc1ccc(C2=NCCN2)cc1)Nc1ccc(C2=NCCN2)cc1
T/C: 100 % of control

Continue with the next compound.
Q: # query: T/C of entry CC1(C)N=C(N)N=C(N)N1c1ccc(CCCCc2ccc(S(=O)(=O)F)cc2)c(Cl)c1
A: 118 % of control

This collection of values is drawn from PubChem BioAssay AID328.
